Target: T1, full-length SARS-CoV-2 nucleocapsid (N) protein (SARS-CoV-2, NC_045512.2 (Wuhan-Hu-1), UniProt P0DTC9)
T1 construct: also called SARS-CoV-2 N protein; SARS-CoV-2 N/D7-Tag; not shown: D7-tag, C-terminal, kept
Assay: BLI
Details: one partner purified
pKd: −log10 of the molar value.
quantityName: pKd

Q. Tell me the measured pKd of N31 (antibody, V domains shown, also called N31 hmAb) VH: QMQLVQSGAEVKKPGSSVKVSCKASGGTFSSYGISWVRQAPGQGLEWMGGIIPILGTANYAQRFQGRIALTADESTSTAYMEVSSLRSEDTAVYYCARGMWSNPPGYCCSYMDVWGKGTTVTVSS VL: EIVLTQSPATLSVSPGERVTLACRASQSLRSKLAWYQQKPGQAPRLLIYDASTRATGFPARFSGSGSGTEFTLTISSLQSEDFAVYYCQQYSNWPRTFGQGTKLEIK , please.
A. > 12.00
